Test system: DLD1 NRF2-WT
Experiment: drug sensitivity score (DSS) cytotoxicity (DSS score); higher = more toxic; extreme values may be limits of the assay
Details: 72 h; CellTox Green cytotoxicity
Overview of recorded drug sensitivity score for various compounds
observedProperty: drug sensitivity score

compound=N#CCNC(=O)c1ccc(-c2ccnc(Nc3ccc(N4CCOCC4)cc3)n2)cc1 numericvalue=0.2
compound=Cc1cc(C)c(CNC(=O)c2cc(-c3ccc(CN4CCOCC4)cc3)cc3c2cnn3C2CCCC2)c(=O)[nH]1 numericvalue=0
compound=O=C(Nc1cccc(Nc2ncc(Br)c(NCCc3cnc[nH]3)n2)c1)N1CCCC1 numericvalue=2.2
compound=NC(=O)N1CCC(CC(=O)N2CCC([C@H]3c4ncc(Br)cc4CCc4cc(Cl)cc(Br)c43)CC2)CC1 numericvalue=6.3
compound=Cn1cnc2c(F)c(Nc3ccc(Br)cc3F)c(C(=O)NOCCO)cc21 numericvalue=0
compound=CNC(=O)[C@@H](NC(=O)[C@H](CC(C)C)[C@H](O)C(=O)NO)C(C)(C)C numericvalue=0
compound=CCc1c2c(nc3ccc(O)cc13)-c1cc3c(c(=O)n1C2)COC(=O)[C@]3(O)CC numericvalue=2.3
compound=COc1cc2ncnc(Nc3ccc(F)c(Cl)c3)c2cc1NC(=O)/C=C/CN1CCCCC1 numericvalue=0
compound=NCCNc1ccc(NCCN)c2c1C(=O)c1ccncc1C2=O numericvalue=0
compound=O=C(Nc1ccncc1)C(=O)c1cn(Cc2ccc(Cl)cc2)c2ccccc12 numericvalue=0.4
compound=Cn1cc(C2=C(c3cn(C4CCN(Cc5ccccn5)CC4)c4ccccc34)C(=O)NC2=O)c2ccccc21 numericvalue=0
compound=Nc1ncnc2c1c(COc1cccc(Cl)c1)nn2C1CCOCC1 numericvalue=0
compound="Cc1sc2c(c1C)C(c1ccc(Cl)cc1)=N[C@@H](CC(=O)Nc1ccc(OCCOCCOCCOCCNc3cccc4c3C(=O)N(C3CCC(=O)NC3=O)C4=O)cc1)c1nnc(C)n1-2 (some centres not stated)" numericvalue=4
compound=O[C@H]1CC[C@H](Nc2ncc3nc(Nc4c(F)cc(F)cc4F)n([C@H]4CCOC4)c3n2)CC1 numericvalue=0
compound="COCC1(CO)C(=O)C2CCN1CC2 (configuration not stated)" numericvalue=0
compound=Cn1ncc(Cl)c1-c1cc(C(=O)N[C@H](CN)Cc2cccc(F)c2)sc1Cl numericvalue=0
compound="COCC[n+]1c2c(n(Cc3cnccn3)c1C)C(=O)c1ccccc1C2=O [Sepantronium bromide]" numericvalue=21.7
compound="COc1ccc(COc2cc3oc(=O)c4cc(C(C)O)ccc4c3cc2OC)cc1 (configuration not stated)" numericvalue=0
compound=O=C(Nc1ccc(OC(F)(F)Cl)cc1)c1cnc(N2CC[C@@H](O)C2)c(-c2cc[nH]n2)c1 numericvalue=0
compound=COc1ccc(CCc2nc3cc(-c4c(C)noc4C)ccc3n2C[C@H](C)N2CCOCC2)cc1Cl numericvalue=0.8
compound=COc1c(C)cnc(Cn2cnc3c(Cl)nc(N)nc32)c1C numericvalue=0
compound=CN[C@@H](C)C(=O)N[C@H]1CN(C(=O)CC(C)C)CC[C@H]2CC[C@@H](C(=O)NC(c3ccccc3)c3ccccc3)N2C1=O numericvalue=0
compound=Nc1nc(Cl)nc2c1ncn2[C@@H]1O[C@H](CO)[C@@H](O)[C@@H]1F numericvalue=0
compound="CCN(CC)CCCC(C)Nc1c2ccc(Cl)cc2nc2ccc(OC)cc12 (configuration not stated)" numericvalue=11.7
compound=CS(=O)(=O)c1ccc(C(=O)Nc2ccc(Cl)c(-c3ccccn3)c2)c(Cl)c1 numericvalue=0
compound=Cc1cc(Nc2cc(CN3CCOCC3)c3nc(C)c(Cc4ccc(Cl)cc4F)n3n2)n[nH]1 numericvalue=2.8
compound=Cc1sc2c(c1C)C(c1ccc(Cl)cc1)=N[C@@H](CC(=O)OC(C)(C)C)c1nnc(C)n1-2 numericvalue=0
compound=O=C(NOC[C@H](O)CO)c1ccc(F)c(F)c1Nc1ccc(I)cc1F numericvalue=0
compound="Cc1sc2c(c1C)C(c1ccc(Cl)cc1)=N[C@@H](CC(=O)NCCCCNC(=O)COc1cccc3c1C(=O)N(C1CCC(=O)NC1=O)C3=O)c1nnc(C)n1-2 (some centres not stated)" numericvalue=0
compound=O=C1CCc2c(Oc3ccc4c(c3)[C@@H]3[C@H](O4)[C@H]3c3nc4cc(C(F)(F)F)ccc4[nH]3)ccnc2N1 numericvalue=0
compound=CN(C)C[C@@H]1CCn2cc(c3ccccc32)C2=C(C(=O)NC2=O)c2cn(c3ccccc23)CCO1 numericvalue=0
compound=CC(C)[C@H](C(=O)Nc1ccc(C(=O)NO)cc1)c1ccccc1 numericvalue=4

Hey, just so you know, these numbers are from the supplement of paper PMC7600603.
